Species: Homo sapiens
ASSAY TEXT: Selectivity index, ratio of IC50 for inhibition of p38alpha (unknown origin) to IC50 for inhibition of TNNI3K (unknown origin)
VALUE KIND: Ratio IC50
Field format: numeric only.

Ratio IC50 reading for CC(C)CNc1cc(Oc2ccc(NC(=O)Nc3cccc(C(F)(F)F)c3)cc2)ncn1 : 5

Ratio IC50 reading for CNC(=O)c1cc(Oc2ccc(NC(=O)Nc3cccc(C(F)(F)F)c3)cc2)ccn1 : 4

Ratio IC50 reading for CC(C)(O)CNc1cc(Oc2ccc(NC(=O)Nc3cccc(C(F)(F)F)c3)cc2)ncn1 : 16

Ratio IC50 reading for C[C@@H](O)CNc1cc(Oc2ccc(NC(=O)Nc3cccc(C(F)(F)F)c3)cc2)ncn1 : 8

Ratio IC50 reading for O=C(Nc1ccc(Oc2cc(O)ncn2)cc1)Nc1cccc(C(F)(F)F)c1 : 0.5

Ratio IC50 reading for O=C(Nc1ccc(Oc2cc(NCCO)ncn2)cc1)Nc1cccc(C(F)(F)F)c1 : 31

Ratio IC50 reading for Nc1cc(Oc2ccc(NC(=O)Nc3cccc(C(F)(F)F)c3)cc2)ncn1 : 40

Ratio IC50 reading for CCCNc1cc(Oc2ccc(NC(=O)Nc3cccc(C(F)(F)F)c3)cc2)ncn1 : 13

Ratio IC50 reading for C[C@H](O)CNc1cc(Oc2ccc(NC(=O)Nc3cccc(C(F)(F)F)c3)cc2)ncn1 : 10

Ratio IC50 reading for CNc1cc(Oc2ccc(NC(=O)Nc3cccc(C(C)F)c3)cc2)ncn1 (stereo not given) : 63

* * *

ASSAY SYSTEM: Serine/threonine-protein kinase TNNI3K (Homo sapiens)
ASSAY TEXT: Inhibition of TNNI3K (unknown origin)
VALUE KIND: pIC50
Lab note: report pIC50 as minus log10 of the concentration in molar units, number only.

pIC50 reading for CNc1cc(Oc2ccc(NC(=O)Nc3cccc(C(F)(F)F)c3)cc2)ncn1 : 7.40

pIC50 reading for CNc1cc(Oc2c(F)cc(NC(=O)Nc3cccc(C(F)(F)F)c3)cc2F)ncn1 : 7.70

pIC50 reading for CNc1cc(Oc2c(C)cc(NC(=O)Nc3cccc(C(F)(F)F)c3)cc2Cl)ncn1 : 7.10

pIC50 reading for CN(C)c1cc(Oc2ccc(NC(=O)Nc3cccc(C(F)(F)F)c3)cc2)ncn1 : 5.60

pIC50 reading for CNC(=O)c1cc(Oc2ccc(NC(=O)Nc3cccc(C(F)(F)F)c3)cc2)ccn1 : 7.10

pIC50 reading for O=C(Nc1ccc(Oc2ncnc3ccccc23)cc1)Nc1cccc(C(F)(F)F)c1 : 6.10

pIC50 reading for CNc1cc(Oc2c(Cl)cc(NC(=O)Nc3cccc(C(F)(F)F)c3)cc2Cl)ncn1 : 8.00

pIC50 reading for CCc1cccc(NC(=O)Nc2ccc(Oc3cc(NC)ncn3)cc2)c1 : 6.70

* * *

ASSAY SYSTEM: Mitogen-activated protein kinase 14 (Homo sapiens, UniProt Q16539)
Sequence (Q16539 whole entry): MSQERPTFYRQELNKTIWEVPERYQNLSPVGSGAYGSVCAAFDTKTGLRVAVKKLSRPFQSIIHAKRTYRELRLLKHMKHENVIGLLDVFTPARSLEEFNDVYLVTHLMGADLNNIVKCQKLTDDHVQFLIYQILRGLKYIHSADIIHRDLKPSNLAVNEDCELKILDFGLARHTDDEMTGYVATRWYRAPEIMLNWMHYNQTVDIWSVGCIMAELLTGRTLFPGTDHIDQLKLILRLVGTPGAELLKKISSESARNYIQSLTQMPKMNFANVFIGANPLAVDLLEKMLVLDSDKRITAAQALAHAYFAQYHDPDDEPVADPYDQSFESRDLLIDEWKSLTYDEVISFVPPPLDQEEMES
ASSAY TEXT: Inhibition of p38alpha (unknown origin)
Give IC50 for every item shown.
All answers are understood in µM, so give the number only.

IC50 reading for O=C(Nc1ccc(Oc2cc(NCCO)ncn2)cc1)Nc1cccc(C(F)(F)F)c1 : 1

IC50 reading for CNc1cc(Oc2ccc(NC(=O)Nc3cccc(C(F)(F)F)c3)cc2C)ncn1 : 0.63

IC50 reading for O=C(Nc1ccc(Oc2ccncn2)cc1)Nc1cccc(C(F)(F)F)c1 : 0.63

IC50 reading for Nc1cc(Oc2ccc(NC(=O)Nc3cccc(C(F)(F)F)c3)cc2)ncn1 : 1

IC50 reading for O=C(Nc1ccc(Oc2ccnc3[nH]ccc23)cc1)Nc1cccc(C(F)(F)F)c1 : 0.032

IC50 reading for CCNc1cc(Oc2ccc(NC(=O)Nc3cccc(C(F)(F)F)c3)cc2)ncn1 : 0.32

IC50 reading for CNc1cc(Oc2ccc(NC(=O)Nc3cccc(C(C)F)c3)cc2)ncn1 (stereo unspecified) : 5

IC50 reading for CNc1cc(Oc2ccc(NC(=O)Nc3cccc(C(F)(F)F)c3)c3ccccc23)ncn1 : 0.005

IC50 reading for COc1cc2ncnc(Oc3ccc(NC(=O)Nc4cccc(C(F)(F)F)c4)cc3)c2cc1OC : 0.8

IC50 reading for Cc1cc(Oc2ccc(NC(=O)Nc3cccc(C(F)(F)F)c3)cc2)ncn1 : 1

IC50 reading for CCc1cccc(NC(=O)Nc2ccc(Oc3cc(NC)ncn3)cc2)c1 : 16

IC50 reading for CNc1cc(Oc2ccc(NC(=O)Nc3cccc(CF)c3)cc2)ncn1 : 25

IC50 reading for Cc1cc(Oc2ccc(NC(=O)Nc3cccc(C(F)(F)F)c3)cc2)c2ccccc2n1 : 1

IC50 reading for C[C@@H](O)CNc1cc(Oc2ccc(NC(=O)Nc3cccc(C(F)(F)F)c3)cc2)ncn1 : 0.5

* * *

ASSAY SYSTEM: Serine/threonine-protein kinase TNNI3K (Homo sapiens, UniProt Q59H18)
Sequence (Q59H18 whole entry): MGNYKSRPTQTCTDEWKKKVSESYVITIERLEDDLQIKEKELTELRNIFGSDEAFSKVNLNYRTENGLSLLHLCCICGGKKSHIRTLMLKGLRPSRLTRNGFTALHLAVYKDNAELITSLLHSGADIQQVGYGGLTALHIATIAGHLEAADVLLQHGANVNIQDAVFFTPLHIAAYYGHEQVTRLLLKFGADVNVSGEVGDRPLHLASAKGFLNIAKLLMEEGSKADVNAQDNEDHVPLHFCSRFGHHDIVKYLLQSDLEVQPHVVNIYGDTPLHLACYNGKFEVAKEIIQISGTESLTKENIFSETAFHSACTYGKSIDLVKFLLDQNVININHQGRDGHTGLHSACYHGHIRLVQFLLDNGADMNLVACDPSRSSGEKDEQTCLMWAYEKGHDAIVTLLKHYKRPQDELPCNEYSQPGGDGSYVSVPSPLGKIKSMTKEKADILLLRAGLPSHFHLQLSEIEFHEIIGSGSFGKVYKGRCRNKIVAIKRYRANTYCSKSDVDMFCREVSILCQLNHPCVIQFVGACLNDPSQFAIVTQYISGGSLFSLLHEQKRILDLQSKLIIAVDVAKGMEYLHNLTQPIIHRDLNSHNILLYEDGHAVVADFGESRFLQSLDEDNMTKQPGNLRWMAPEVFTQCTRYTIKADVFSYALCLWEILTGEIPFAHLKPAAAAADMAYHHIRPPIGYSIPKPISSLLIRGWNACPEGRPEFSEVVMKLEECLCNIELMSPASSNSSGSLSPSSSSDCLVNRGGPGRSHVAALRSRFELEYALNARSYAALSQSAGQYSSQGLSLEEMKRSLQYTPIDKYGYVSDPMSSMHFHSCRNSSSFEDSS
ASSAY TEXT: Inhibition of TNNI3K (unknown origin)
Labelling: IC50 reported below 80 nM becomes satisfied; at or above becomes not satisfied.

Dear colleague, could you confirm whether IC50 of CNc1cc(Oc2ccc(NC(=O)Nc3cccc(C)c3)cc2)ncn1 falls below 80 nM? Thanks.
not satisfied

Dear colleague, could you confirm whether IC50 of CCCNc1cc(Oc2ccc(NC(=O)Nc3cccc(C(F)(F)F)c3)cc2)ncn1 falls below 80 nM? Thanks.
satisfied

Dear colleague, could you confirm whether IC50 of CNc1cc(Oc2ccc(NC(=O)Nc3cccc(C(C)(C)C)c3)cc2)ncn1 falls below 80 nM? Thanks.
satisfied

Dear colleague, could you confirm whether IC50 of O=C(O)Cc1cccc(Nc2cc(Oc3ccc(NC(=O)Nc4cccc(C(F)(F)F)c4)cc3)ncn2)c1 falls below 80 nM? Thanks.
satisfied

Dear colleague, could you confirm whether IC50 of O=C(Nc1ccc(Oc2ccncn2)cc1)Nc1cccc(C(F)(F)F)c1 falls below 80 nM? Thanks.
not satisfied

Dear colleague, could you confirm whether IC50 of O=C(Nc1ccc(Oc2cc(O)ncn2)cc1)Nc1cccc(C(F)(F)F)c1 falls below 80 nM? Thanks.
not satisfied

* * *

Species on record: Homo sapiens
ASSAY TEXT: Selectivity index, ratio of IC50 for inhibition of VEGFR2 (unknown origin) to IC50 for inhibition of TNNI3K (unknown origin)
VALUE KIND: Ratio IC50
Field format: numeric only.

Ratio IC50 reading for CNc1nccc(Oc2ccc(NC(=O)Nc3cccc(C(F)(F)F)c3)cc2)n1 : 0.64

Ratio IC50 reading for C[C@H](O)CNc1cc(Oc2ccc(NC(=O)Nc3cccc(C(F)(F)F)c3)cc2)ncn1 : 10

Ratio IC50 reading for O=C(Nc1ccc(Oc2ccnc3[nH]ccc23)cc1)Nc1cccc(C(F)(F)F)c1 : 0.1

Ratio IC50 reading for COc1cc(Oc2ccc(NC(=O)Nc3cccc(C(F)(F)F)c3)cc2)ncn1 : 0.1

Ratio IC50 reading for CN(C)c1cc(Oc2ccc(NC(=O)Nc3cccc(C(F)(F)F)c3)cc2)ncn1 : 1

Ratio IC50 reading for CNc1cc(Oc2ccc(NC(=O)Nc3cccc(C(F)F)c3)cc2)ncn1 : 1.3

Ratio IC50 reading for Nc1cc(Oc2ccc(NC(=O)Nc3cccc(C(F)(F)F)c3)cc2)ncn1 : 0.32
